substrate: pNPB; test: Proxy for plastic degradation [kcat/Km (catalytic efficiency)] (mM⁻¹s⁻¹); settings: pH 7
valueKind: Proxy for plastic degradation
Answer with a number only.

Challenge: // returns reported Proxy for plastic degradation for input unnamed (protein) MDGVLWRVRTAALMAALLALAAWALWASPSVEAQSNPYQRGPNPTRSALTADGPFSVATYTVSRLSVSGFGGVIYYPTGTSLTFGGIAMSPGYTADASSLAWLGRRLASHGFVVLVINTNSRFDYPDSRASQLSAALNYLRTSSPSAVRARLDANRLAVAGHSMGGGGTLRIAEQNPSLKAAVPLTPWHTDKTFNTSVPVLIVGCEADTVAPVSQHAIPFYQNLPSTTPKVYVELDNASHSCPNSNNAAISVYTISWMKLWVDNDTRYRQFLCNVNDPALSDFRTNNRHCQCQ
Response given: 125

Challenge: Please do the same for unnamed (protein) MDGVLWRVRTAALMAALLALAAWALWASPSVEAQSNPYQRGPNPTRSALTADGPFSVATYTVSRLSVSGFGGVIYYPTGTSLTFGGIAMSPGYTADASSLAWLGRRLASHGFVVLVINTNSRFDYPDSRASQLSAALNYLRTSSPSAVRARLDANRLAVAGHSMGGGGTLRIAEQNPSLKAAVPLTPWHTDKTFNTSVPVLIVGAEADTVAPVSQHAIPFYQNLPSTTPKVYVELDNASHFAPNSNNAAISVYTISWMKLWVDNDTRYRQFLCNVNDPALSDFRTNNRHCQCQ as well.
Response given: 398
